Biological target: T1, biotinylated α-cobratoxin from Naja kaouthia (Naja kaouthia, biotin through amine coupling (NHS-PEG4-Biotin), sites not stated)
T1 chain: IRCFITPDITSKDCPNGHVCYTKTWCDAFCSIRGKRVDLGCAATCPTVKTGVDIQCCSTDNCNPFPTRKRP
Assay: BLI
Conditions: both partners purified

binder | Kd, nM
C05 Fab, parental mAb 368_01_C05, with the N-glycosylation site of CDR-L3 removed (C05-NS) (Fab, V domains shown) VH: QVQLVQSGAEVKKPGSSVKVSCKASGGTFSSYAISWVRQAPGQGLEWMGGIIPIFGTANYAQKFQGRVTITADESTSTAYMELRSLRSDDTAVYYCARDNLGYCSGGSCYSDYYYYYMDVWGQGTLVTVSS VL: NFMLTQPHSVSESPGKTVTISCTRSSGSIASTYVHWYQQRPGSAPTTVIYEDNQRPSGVPDRFSGSIDSSSNSASLTISGLKTEDEADYYCQSYDSSSGSVVFGGGTKLTVL | 71.2
